tested on: LOX IMVI melanoma; test: NCI tumour cell line growth inhibition, 48 h; in the data active = GI50 below about 0.43 µM; inactive = the rest
Result category, one only: active, inactive

Hi team, can someone confirm the assay call for O=C(COC(=O)[C@H](C[Se][Se]C[C@H](NC(=O)c1ccc(Br)cc1F)C(=O)OCC(=O)c1ccc(F)cc1)NC(=O)c1ccc(Br)cc1F)c1ccc(F)cc1 ?
inactive

So what was the verdict on Cc1cccc(Cc2cnc(NC(=O)CCCOc3ccc(Cl)cc3)s2)c1 in this test?
inactive

Entry CC(C)=NO.CC(C)=NO.CC(C)=NO.CC(C)=NO.[Ti] : call = ?
inactive

Per the assay record, what outcome was assigned to N#Cc1c(N)nc(N2CCOCC2)c(C#N)c1-c1ccc(Cl)cc1Cl ?
inactive

State the result this test recorded for CN1CCN(Cc2ccc(NC(=O)c3cncc(C#Cc4cnc5cccnn45)c3)cc2C(F)(F)F)CC1 .
inactive

Which outcome did this test record for the compound Cc1c(-c2ccc(N3CCc4cccc(C(=O)Nc5nc6ccccc6s5)c4C3)nc2C(=O)O)cnn1CC12CC3CC(CC(C3)C1)C2 ?
inactive

Field: outcome | Entry: COC(=O)C(NC(=O)c1ccccc1)c1ccc(OC)c(I)c1 (centres undefined)
inactive

Field: outcome | Entry: CCc1c[nH]c2ncnc(N3CC[C@](N)(CNC(=O)c4ccc(F)cc4F)C3)c12
inactive

Given COc1cc(/C=C/C(=O)c2c(-c3ccc(Cl)cc3)nc3sc(C)nn23)cc(OC)c1OC , state the outcome it received in this test.
inactive

What call does the record list for COc1cc2c(cc1OCCCN1CCN(CCCn3c4ccccc4c4ccccc43)CC1)N=C[C@@H]1CCCN1C2=O ?
active

// param item: CS(=O)(=O)Nc1ccc(Nc2c3ccccc3nc3cc(Cl)ccc23)cc1 ; yields the recorded call
active

Please let me know the test result on file for COc1ccc(S(=O)(=O)NCCCNc2nccc(-c3c(-c4ccc(F)cc4)nc4sccn34)n2)cc1 .
inactive

Write down the call the test reported for this compound. Item: ClCc1ccc(Cn2cnc3nc(Cl)nc(Cl)c32)cc1
inactive

Field: outcome | Entry: O=C(c1ccccc1)c1ccc(N2C(=O)C3C4c5ccccc5C(/C=C/C(=O)c5ccccn5)(c5ccccc54)C3C2=O)cc1 (centres undefined)
inactive
